Reference source: the supplement of paper PMC3334620

# target_or_system: Upc2 (UniProt Q12151)
# Sequence: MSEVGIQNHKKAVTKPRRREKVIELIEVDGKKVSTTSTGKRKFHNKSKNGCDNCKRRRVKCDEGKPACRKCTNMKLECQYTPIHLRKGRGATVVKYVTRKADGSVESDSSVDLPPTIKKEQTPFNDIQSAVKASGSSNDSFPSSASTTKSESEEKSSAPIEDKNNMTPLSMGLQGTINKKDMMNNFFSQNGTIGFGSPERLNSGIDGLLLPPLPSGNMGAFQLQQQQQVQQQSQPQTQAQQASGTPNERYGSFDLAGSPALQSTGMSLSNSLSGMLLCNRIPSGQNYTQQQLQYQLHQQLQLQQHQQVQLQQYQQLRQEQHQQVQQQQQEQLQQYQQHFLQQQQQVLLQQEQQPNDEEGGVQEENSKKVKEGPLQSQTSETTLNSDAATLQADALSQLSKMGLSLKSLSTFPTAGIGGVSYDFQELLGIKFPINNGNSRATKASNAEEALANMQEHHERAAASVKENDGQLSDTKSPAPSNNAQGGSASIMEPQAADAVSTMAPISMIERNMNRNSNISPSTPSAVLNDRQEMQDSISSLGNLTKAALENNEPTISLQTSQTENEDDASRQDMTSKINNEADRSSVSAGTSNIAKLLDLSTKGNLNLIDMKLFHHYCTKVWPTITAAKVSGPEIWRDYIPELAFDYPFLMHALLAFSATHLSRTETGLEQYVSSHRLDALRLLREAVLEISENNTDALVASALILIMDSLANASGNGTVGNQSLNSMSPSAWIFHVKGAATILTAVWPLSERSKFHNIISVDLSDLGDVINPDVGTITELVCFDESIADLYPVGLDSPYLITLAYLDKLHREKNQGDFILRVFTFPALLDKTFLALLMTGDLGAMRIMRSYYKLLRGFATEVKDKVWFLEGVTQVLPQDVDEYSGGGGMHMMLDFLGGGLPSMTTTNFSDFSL
# assay_comment: PBM E-score (8-mer binding enrichment) (E-score (-0.5 to 0.5)); higher = stronger / more preferred TF binding
# condition_info: protein concentration: 200 nM; construct: GST-full length
Over roughly 33,000 sequences, “E-score (-0.5 to 0.5)” has its median near -0.043; the highest 2% begin near 0.37. The sample holds the highest values, similar sequences and a random draw of the others, so the mix is not that of the screen.
Class t: PBM E-score at least 0.3. Class f: PBM E-score below 0.3.

monomer_sequence	cat
ACGAGGGC	t
GCGAGTTA	f
CAGCACGG	f
AGCGTGGA	f
ACGAGTTC	t
CGTAAGAG	t
AGTTAGCA	f
ACGCTAGG	f
ACGAGTTA	t

Now take the following sequence into account.
Assess whether reported PBM E-score for ACGAGGGA sits at 0.3 or higher.
t
